Target Of Assay: HGFA (Homo sapiens)
Construct: purchased R&D Systems 1514-SE-010
Sequence (Q04756 408-655 limits assumed): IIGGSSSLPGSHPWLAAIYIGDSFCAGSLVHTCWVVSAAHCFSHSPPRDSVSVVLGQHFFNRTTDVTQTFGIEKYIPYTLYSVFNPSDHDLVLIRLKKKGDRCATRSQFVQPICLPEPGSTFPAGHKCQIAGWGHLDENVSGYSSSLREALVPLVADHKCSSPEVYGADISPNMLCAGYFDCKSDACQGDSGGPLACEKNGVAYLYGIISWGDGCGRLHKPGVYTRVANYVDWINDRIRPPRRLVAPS
Sequence (Q04756 373-407 partner limits assumed): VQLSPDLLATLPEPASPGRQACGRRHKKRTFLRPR
Protocol Text: Fluorogenic kinetic enzyme inhibitor assay, HGFA
Type: biochemical
Condition: 30 min incubation, Boc-QLR-AMC at Km; read-out: HGFA IC50
I'd appreciate it if you could supply IC50 values for the items below.
Expressed in µM, but write only the number.

Qu. Lab note: need IC50 with HGFA (Homo sapiens) for entry CC(=O)N[C@H]1Cc2cn(nn2)CCCC[C@H](C(=O)N[C@@H](CCCNC(=N)N)C(=O)c2nc3ccccc3s2)NC(=O)[C@H](CC(C)C)NC1=O , please look it up.
Ans. 3.08

Qu. Param readout = IC50; param system = HGFA (Homo sapiens); param query = CC(=O)N[C@@H](CO)C(=O)N[C@@H](CCCCN)C(=O)N[C@@H](CC(C)C)C(=O)N[C@@H](CCCNC(=N)N)C(=O)c1nc2ccccc2s1 ; response: value
Ans. 0.066

Qu. For the record CC(=O)N[C@H]1Cc2ccc(cc2)OC/C=C\CNC(=O)CC[C@@H](C(=O)N[C@@H](CCCNC(=N)N)C(=O)c2nc3ccccc3s2)NC(=O)[C@H](CC(C)C)NC1=O , what value of IC50 is listed for HGFA (Homo sapiens)?
Ans. 6.5

Qu. Checklist item: IC50 tested on HGFA (Homo sapiens), entry CSCC[C@@H]1NC(=O)[C@@H](NC(C)=O)CC(=O)NCCCC[C@@H](C(=O)N[C@@H](CCCNC(=N)N)C(=O)c2nc3ccccc3s2)NC1=O , value?
Ans. 3.24

Qu. Form field - read-out: IC50; system: HGFA (Homo sapiens); submitted item: CC(=O)N[C@@H](CCC(N)=O)C(=O)N[C@@H](Cc1ccccc1)C(=O)N[C@@H](CCCNC(=N)N)C(=O)c1nc2ccccc2s1
Ans. 0.014
